Test system: human non-small-cell lung cancer cell line (PC-9)
Experiment: In vitro cell growth inhibition assay (WST-1) with isobologram analysis of combination effect
Format: cell-based
Conditions: combined with the test compound (hydrochloride of Compound 22), 72 hours, isobologram method
PARAMETER_MEASURED: Combination effect of test compound and each compound

>>> measured("CC(=O)O[C@H]1C(=O)[C@@]2(C)[C@H]([C@H](OC(=O)c3ccccc3)[C@]3(O)C[C@H](OC(=O)[C@H](O)[C@@H](NC(=O)c4ccccc4)c4ccccc4)C(C)=C1C3(C)C)[C@]1(OC(C)=O)CO[C@@H]1C[C@@H]2O")
"Envelope of additivity"
>>> measured("COc1cc2ncnc(Nc3ccc(F)c(Cl)c3)c2cc1OCCCN1CCOCC1")
"Envelope of additivity"
>>> measured("CC(=O)O[C@@]12CO[C@@H]1C[C@H](O)[C@@]1(C)C(=O)[C@H](O)C3=C(C)[C@@H](OC(=O)[C@H](O)[C@@H](NC(=O)OC(C)(C)C)c4ccccc4)C[C@@](O)([C@@H](OC(=O)c4ccccc4)[C@H]21)C3(C)C")
"Envelope of additivity"
